- Read-out: Cytochrome P450 (CYP24A1), CYP24A1 (gene 1591)
- Experimental Details: LTEA_HepaRG_CYP24A1: Life Technologies and Expression Analysis (LTEA) Assay for Cytochrome P450 (CYP24A1) using HepaRG (AID 2283478)
- Condition Details: mRNA level, 48 h; actives raise or lower the signal
- Description: LTEA_HepaRG is a cell based, multiplexed-readout assay that uses HepaRG, a human liver cell line, with measurements taken at 48 hours after chemical dosing on a 96-well plate.LTEA_HepaRG_CYP24A1 is one of 102 assay component(s) measured in the LTEA HepaRG cell culture assay. It is a marker of NR mediated metabolism.Data from the assay component LTEA_HepaRG_CYP24A1 was analyzed into 1 endpoint. […]
Calls of active or inactive are those of the source. The calls were made as follows: active = hit-call score of the fitted dose curve at least 0.9, where 1 is the maximum; inactive = score below 0.9.
Measured Endpoint: outcome

Check out these entries, answers already filled in.
> print(dat)
                                   compound  reported.value
1                              COCCOCCOCCOC        inactive
2  O=C(O)c1cc(N=Nc2ccc(S(=O)(=O)Nc3ccccn3)cc2)ccc1O        inactive
3  CC(C)CCCCCCCOC(=O)CCCCC(=O)OCCCCCCCC(C)C        inactive
4  CCCN(C1CCN(C(=O)C2CCNCC2)CC1)[C@@H]1CCc2ccc(OC)cc2C1        inactive
5   Cn1cnc([N+](=O)[O-])c1Sc1ncnc2nc[nH]c12        inactive

Each of the following entries comes with a recorded value; kindly state outcome for each.
1. CCOC(=O)CC(CC(=O)OCC)(OC(C)=O)C(=O)OCC
2. Fc1ccccc1[C@@H](F)COC1CCC(Nc2ncnc3[nH]ncc23)CC1 (stereo partly drawn)
3. C1N2CN3CN1CN(C2)C3
4. C=CCCCCCCCCC(=O)O
5. Cn1c(=O)cc(Oc2ccc(F)cc2F)c2cnc(NCC(C)(C)O)nc21
6. CN(C)c1ccc(N=NS(=O)(=O)O)cc1
7. CN(C)c1ccc(Cc2ccc(N(C)C)cc2)cc1

Solution:
1: inactive; 2: inactive; 3: inactive; 4: inactive; 5: inactive; 6: inactive; 7: inactive

Problem: Entry CCOCCOCCOCCO : reported outcome = ?
Solution: inactive
